Molecular target: Glutaminase kidney isoform, mitochondrial (Homo sapiens)
Sequence (O94925 whole entry, canonical isoform): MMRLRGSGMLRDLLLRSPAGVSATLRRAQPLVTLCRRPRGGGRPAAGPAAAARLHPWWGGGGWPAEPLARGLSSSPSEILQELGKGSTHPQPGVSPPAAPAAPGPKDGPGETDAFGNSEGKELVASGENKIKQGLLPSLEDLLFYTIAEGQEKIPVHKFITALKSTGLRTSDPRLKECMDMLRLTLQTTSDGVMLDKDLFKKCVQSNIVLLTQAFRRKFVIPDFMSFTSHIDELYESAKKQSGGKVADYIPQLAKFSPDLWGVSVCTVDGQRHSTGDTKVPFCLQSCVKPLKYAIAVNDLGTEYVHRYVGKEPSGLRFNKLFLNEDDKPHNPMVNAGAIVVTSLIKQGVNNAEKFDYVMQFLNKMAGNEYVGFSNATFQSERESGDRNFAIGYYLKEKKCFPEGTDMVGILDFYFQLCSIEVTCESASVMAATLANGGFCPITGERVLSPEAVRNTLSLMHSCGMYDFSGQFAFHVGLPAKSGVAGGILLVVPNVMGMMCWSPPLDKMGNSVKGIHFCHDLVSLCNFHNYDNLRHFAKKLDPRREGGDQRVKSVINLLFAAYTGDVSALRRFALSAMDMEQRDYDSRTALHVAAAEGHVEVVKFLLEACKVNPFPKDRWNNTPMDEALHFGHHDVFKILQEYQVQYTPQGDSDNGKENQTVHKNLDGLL
Test: Inhibition of human KGA preincubated for 15 to 30 mins followed by substrate addition and measured after 3 to 4 hrs by GDH-EZMTT reagent-based GDH coupled assay
Please provide measured IC50 for the entries that follow.
The reply should contain only the number, in nM.

*Q* Provide IC50, system Glutaminase kidney isoform, mitochondrial (Homo sapiens), entry Cn1ccc(CC(=O)Nc2nnc(CCSCCc3nnc(N)[se]3)[se]2)c1
*A* 2100

*Q* Provide IC50, system Glutaminase kidney isoform, mitochondrial (Homo sapiens), entry O=C(Nc1nnc(CCSCCc2nnc(NC(=O)C34CC5CC(CC(C5)C3)C4)[se]2)[se]1)C12CC3CC(CC(C3)C1)C2
*A* 1700

*Q* Provide IC50, system Glutaminase kidney isoform, mitochondrial (Homo sapiens), entry Cn1ccc(CC(=O)Nc2nnc(CCSCCc3nnc(N)s3)s2)c1
*A* 5100

*Q* Provide IC50, system Glutaminase kidney isoform, mitochondrial (Homo sapiens), entry Nc1nnc(CCSCCc2nnc(NC(=O)Cc3ccccc3)[se]2)[se]1
*A* 2800

---

Test system: A549
Assay: Antiproliferative activity against human A549 cells after 5 days by EZMTT reagent-based assay
Type: functional, cell-based
Details: A549, 120 h
# if measured IC50 < 1 µM: condition met  # else: condition not met

*Q* Item O=C(Cc1ccccc1)Nc1nnc(CCSCCc2nnc(NC(=O)Cc3ccccc3)s2)s1 : IC50 beneath 1 µM, strictly?
*A* condition met

*Q* Item Cn1cc(CC(=O)Nc2nnc(CCSCCc3nnc(N)s3)s2)c2ccccc21 : IC50 beneath 1 µM, strictly?
*A* condition not met

*Q* Item Cn1cc(CC(=O)Nc2nnc(CCSCCc3nnc(NC(=O)Cc4cn(C)c5ccccc45)[se]3)[se]2)c2ccccc21 : IC50 beneath 1 µM, strictly?
*A* condition met

*Q* Item Nc1nnc(CCSCCc2nnc(NC(=O)CC34CC5CC(CC(C5)C3)C4)[se]2)[se]1 : IC50 beneath 1 µM, strictly?
*A* condition not met

*Q* Item Nc1nnc(CCSCCc2nnc(NC(=O)C34CC5CC(CC(C5)C3)C4)[se]2)[se]1 : IC50 beneath 1 µM, strictly?
*A* condition not met

*Q* Item Nc1nnc(CCCCc2nnc(NC(=O)Cc3ccccc3)s2)s1 : IC50 beneath 1 µM, strictly?
*A* condition not met

*Q* Item O=C(Nc1nnc(CCSCCc2nnc(NC(=O)C34CC5CC(CC(C5)C3)C4)[se]2)[se]1)C12CC3CC(CC(C3)C1)C2 : IC50 beneath 1 µM, strictly?
*A* condition not met

*Q* Item Cn1ccc(CC(=O)Nc2nnc(CCSCCc3nnc(NC(=O)Cc4ccn(C)c4)s3)s2)c1 : IC50 beneath 1 µM, strictly?
*A* condition not met

*Q* Item c1ccc(CNc2nnc(CCSCCc3nnc(NCc4ccccc4)[se]3)[se]2)cc1 : IC50 beneath 1 µM, strictly?
*A* condition not met

*Q* Item c1ccc(CCNc2nnc(CCSCCc3nnc(NCCc4ccccc4)[se]3)[se]2)cc1 : IC50 beneath 1 µM, strictly?
*A* condition not met

*Q* Item O=C(Cc1cccc(OC(F)(F)F)c1)Nc1ccc(CCCCc2nnc(NC(=O)Cn3cc(F)c(=O)[nH]c3=O)[se]2)nn1 : IC50 beneath 1 µM, strictly?
*A* condition met

*Q* Item Cn1cc(CC(=O)Nc2nnc(CCSCCc3nnc(N)[se]3)[se]2)c2ccccc21 : IC50 beneath 1 µM, strictly?
*A* condition not met

*Q* Item COc1ccc(Nc2nnc(CCSCCc3nnc(Nc4ccc(OC)cc4)[se]3)[se]2)cc1 : IC50 beneath 1 µM, strictly?
*A* condition not met

*Q* Item O=C(Cc1ccccc1)Nc1nnc(CCCCc2nnc(NC(=O)Cc3ccccc3)s2)s1 : IC50 beneath 1 µM, strictly?
*A* condition not met
